- target_desc: Pleckstrin Homology Domain‐Interacting Protein, second bromodomain (PHIP(2)) (Homo sapiens, UniProt Q8WWQ0)
- Construct: second bromodomain (PHIP(2))
- test_description: grating-coupled interferometry (waveRAPID) Kd; crystal structure; AlphaScreen IC50
measurement_label: Kd (µM)
Please give a number only; it is taken to be in µM.

Provide measured Kd value, entry: O=C(Nc1nc2ccccc2o1)N1CCN(C(=O)c2ccco2)CC1
50

These measurements were taken from paper PMC12001203.
